- Species on record: Rattus norvegicus
- methodDescription: Open TG-GATES - Regimen: Daily Repeat
- Type: toxicity, organism-based, Sprague-Dawley
- Parameters: regimen Daily Repeat, gender Male, age 6 weeks
- testConditions: in vivo, po, 1000 mg/kg, […], tissue Blood, route gavage, dose level High, time 28 day
measuredQuantity: PT (s)
Report the figure in s without appending any unit label.

COc1ccc2[nH]c([S+]([O-])Cc3ncc(C)c(OC)c3C)nc2c1 (stereo not given) [OMEPRAZOLE]: 12.3
CCOc1ccc(NC(=O)CC(C)O)cc1 (stereo not given) [BUCETIN]: 14.4
NC(N)=Nc1nc(CSCCC(N)=NS(N)(=O)=O)cs1 [FAMOTIDINE]: 12.5

Consider the compound COC1=CC(=O)C[C@@H](C)[C@]12Oc1c(Cl)c(OC)cc(OC)c1C2=O [GRISEOFULVIN] and give its recorded PT.
13

Consider the compound CCOC(=O)CCC(=O)O[C@H]1[C@H](O[C@@H]2[C@@H](C)[C@H](O[C@H]3C[C@@](C)(OC)[C@@H](O)[C@H](C)O3)[C@@H](C)C(=O)O[C@H](CC)[C@@](C)(O)[C@H](O)[C@@H](C)C(=O)[C@H](C)C[C@@]2(C)O)O[C@H](C)C[C@@H]1N(C)C [ERYTHROMYCIN ETHYLSUCCINATE] and give its recorded PT.
16.3
